- SYSTEM TESTED: human Lck enzyme (Homo sapiens, UniProt P06239)
- Construct: purchased Carna Biosciences, Inc. 08-170
- Sequence (P06239 whole entry): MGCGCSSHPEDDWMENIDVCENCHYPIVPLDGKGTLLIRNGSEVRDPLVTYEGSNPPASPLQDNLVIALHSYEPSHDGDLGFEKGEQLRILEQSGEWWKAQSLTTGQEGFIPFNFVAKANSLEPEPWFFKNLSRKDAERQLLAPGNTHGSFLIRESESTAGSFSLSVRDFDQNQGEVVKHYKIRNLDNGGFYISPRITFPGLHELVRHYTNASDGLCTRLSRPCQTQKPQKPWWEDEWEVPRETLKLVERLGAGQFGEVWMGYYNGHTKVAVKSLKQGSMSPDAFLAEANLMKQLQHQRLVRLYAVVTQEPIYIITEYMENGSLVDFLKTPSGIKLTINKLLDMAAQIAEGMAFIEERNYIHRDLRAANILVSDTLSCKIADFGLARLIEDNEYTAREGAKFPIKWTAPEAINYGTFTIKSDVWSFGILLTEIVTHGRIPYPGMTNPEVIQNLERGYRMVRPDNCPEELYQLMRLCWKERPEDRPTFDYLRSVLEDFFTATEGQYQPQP
- PROTOCOL DETAILS: Lck enzyme inhibitory activity (time-resolved fluorometry, biotinylated peptide phosphorylation)
- Type: biochemical
- STUDY CONDITIONS: read-out: LCK_IC50
Friendly reminder: IC50 below 20 nM is Met, at or above is Not met.

CHEMICAL STRUCTURE	CATEGORY
COc1cc2cc(C(=O)c3cnn(-c4c(C)cc(Oc5ccccc5F)cc4F)c3N)[nH]c2cc1NS(=O)(=O)CC(=O)N1CCCC1	Met
Cc1cc2cc(C(=O)c3cnn(-c4cnc(Oc5ccccc5F)cc4C)c3N)[nH]c2cc1NS(=O)(=O)NC1CCOCC1	Not met
CC(C)N1CCC(c2cc3[nH]c(C(=O)c4cnn(-c5ccc(Oc6cccc(Cl)c6)cc5F)c4N)cc3cc2F)CC1	Met

Exercise: Identify whether the molecule Nc1c(C(=O)c2cc3cc(F)c(NS(=O)(=O)CCCF)cc3[nH]2)cnn1-c1c(Cl)cc(Oc2cccc(F)c2F)cc1Cl records IC50 below 20 nM.
Solution: Not met

Exercise: # strict comparison: is reported IC50 < 20 nM? input = Cc1cc(Oc2c(F)cccc2F)ncc1-n1ncc(C(=O)c2cc3cc(SC(F)F)c(NS(=O)(=O)C4CCOCC4)cc3[nH]2)c1N
Solution: Not met

Exercise: IC50 strictly < 20 nM for this molecule? CC(=O)N1CCC(c2cc3[nH]c(C(=O)c4cnn(-c5cnc(Oc6c(F)cccc6F)cc5C)c4N)cc3cc2C)CC1
Solution: Not met
